Ref: ChEMBL document CHEMBL3046016

- Test system: Earias vittella
- protocol_summary: Insecticidal activity against pupal stage of Earias vitella assessed as pupal duration time at 5 ug/cm3 administered through artificial diet containing Abelmoschus esculentus seed powder (reference value: 6.4 +/- 0.21 days)
- Type: functional
Please assign FALSE whenever Time is at or above 9 days, and TRUE whenever it is below.

Previously resolved entries follow.
Prompt: Determine if CC[C@@](C)(OC(C)=O)C(=O)O[C@H]1[C@H](O)C[C@@H]2[C@@](C)([C@@H]3C[C@H]4C=CO[C@H]4O3)[C@H](C)C[C@H](OC(C)=O)[C@@]2(COC(C)=O)[C@@]12CO2 [CLERODENDRIN B] shows Time strictly lower than 9 days.
Completion: FALSE

Prompt: # TODO verify Time < 9 days strictly for this molecule: CC(=O)OC[C@@]12[C@@H](OC(C)=O)C[C@@H](C)[C@](C)([C@@H]3C[C@H]4C=CO[C@H]4O3)[C@H]1CCC[C@]21CO1 [CLERODIN]
Completion: TRUE

Prompt: A record lists CC[C@@](C)(OC(C)=O)C(=O)O[C@H]1[C@H](OC(C)=O)C[C@@H]2[C@@](C)([C@@H]3C[C@H]4C=CO[C@H]4O3)[C@H](C)C[C@H](OC(C)=O)[C@@]2(COC(C)=O)[C@@]12CO2 [CLERODENDRIN B ACETATE] . Is its Time below 9 days?
Completion: TRUE

# evaluate next
Prompt: Identify whether the molecule CC(=O)OC[C@@]12[C@@H](OC(C)=O)C[C@@H](C)[C@](C)([C@@H]3C[C@H]4C=CO[C@H]4O3)[C@H]1C[C@@H](O)[C@H](OC(=O)C(C)(C)OC(C)=O)[C@]21CO1 [CLERODENDRIN C] records Time below 9 days.
Completion: TRUE
